- TEST TARGET: Recombinant human KIF18A (1-467His-tagged) protein (Homo sapiens, UniProt Q8NI77)
- Construct: Recombinant human KIF18A (1-467His-tagged) protein; His
- Sequence (Q8NI77 1-467): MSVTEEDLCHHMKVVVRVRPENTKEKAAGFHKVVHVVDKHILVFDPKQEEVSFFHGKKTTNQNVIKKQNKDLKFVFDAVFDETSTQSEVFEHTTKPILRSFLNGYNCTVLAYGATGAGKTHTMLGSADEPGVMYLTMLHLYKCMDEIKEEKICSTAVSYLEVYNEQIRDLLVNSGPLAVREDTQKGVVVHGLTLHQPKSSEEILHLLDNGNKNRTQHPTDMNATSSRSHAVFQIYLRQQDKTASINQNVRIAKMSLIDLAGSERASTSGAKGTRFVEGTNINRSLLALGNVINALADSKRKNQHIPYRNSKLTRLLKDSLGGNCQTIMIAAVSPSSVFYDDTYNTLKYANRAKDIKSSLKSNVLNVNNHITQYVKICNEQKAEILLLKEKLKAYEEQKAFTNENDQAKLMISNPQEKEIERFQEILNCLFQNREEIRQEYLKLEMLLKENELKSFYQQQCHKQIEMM
- Sequence (P02550 whole entry partner): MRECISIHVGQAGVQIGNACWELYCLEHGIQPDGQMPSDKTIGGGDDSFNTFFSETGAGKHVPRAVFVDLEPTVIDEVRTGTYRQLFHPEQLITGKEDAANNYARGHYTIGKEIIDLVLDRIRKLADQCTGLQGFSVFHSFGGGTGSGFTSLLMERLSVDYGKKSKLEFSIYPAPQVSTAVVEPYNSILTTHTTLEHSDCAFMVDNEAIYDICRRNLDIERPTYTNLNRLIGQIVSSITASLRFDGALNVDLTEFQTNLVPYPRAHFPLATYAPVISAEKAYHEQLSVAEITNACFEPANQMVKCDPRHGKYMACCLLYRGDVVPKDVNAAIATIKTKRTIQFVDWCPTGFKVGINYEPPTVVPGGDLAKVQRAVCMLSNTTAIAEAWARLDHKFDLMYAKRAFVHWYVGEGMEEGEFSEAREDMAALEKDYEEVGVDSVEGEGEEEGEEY
- Sequence (P02554 whole entry partner): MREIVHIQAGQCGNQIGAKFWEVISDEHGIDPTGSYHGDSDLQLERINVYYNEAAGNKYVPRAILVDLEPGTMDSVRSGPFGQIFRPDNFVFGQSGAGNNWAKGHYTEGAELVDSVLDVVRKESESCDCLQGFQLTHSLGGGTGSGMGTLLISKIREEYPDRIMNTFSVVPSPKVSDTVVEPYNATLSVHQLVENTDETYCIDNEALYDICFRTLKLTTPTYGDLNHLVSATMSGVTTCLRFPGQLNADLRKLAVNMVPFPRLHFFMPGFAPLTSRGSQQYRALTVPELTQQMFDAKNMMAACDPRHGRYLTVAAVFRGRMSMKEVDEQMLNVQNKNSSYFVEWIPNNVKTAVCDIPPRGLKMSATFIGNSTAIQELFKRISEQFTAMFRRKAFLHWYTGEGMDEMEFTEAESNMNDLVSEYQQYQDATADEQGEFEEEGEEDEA
- ASSAY PROCEDURE: KIF18A enzyme assay (microtubule-stimulated ATPase activity, ADP-Glo)
- STATED CONDITIONS: 30 nM KIF18A, 75 μM ATP, 30 μg/mL pig microtubules; read-out: Inhibitory activity against KIF18A IC50
Each entry below lists one item and its recorded IC50 value.
OBSERVATION TYPE: IC50

| COMPOUND | RESULT |
| --- | --- |
| CSc1ccc(NC(=O)c2cnc(NS(=O)(=O)CCO)cc2N2CCC3(CC2)CC3)cc1N1CC(F)(F)C1 | ≤ 100 nM |
| O=C(Nc1ccc([N+](=O)[O-])c(OCCC(F)(F)F)c1)c1ccc(S(=O)(=O)NCCO)cc1N1CCC2(CC1)CC2 | ≤ 100 nM |
| CSc1ccc(NC(=O)c2cnc(NS(=O)(=O)CCO)cc2N2CCC3(CC2)CC3)cc1N1CCC(C)(F)C1 (stereo not shown) | ≤ 100 nM |
| O=C(Nc1ccc(OCF)c(N2CC3CC3C2)c1)c1cnc(NS(=O)(=O)CCO)cc1N1CCC2(CC1)CC2 (stereo not shown) | ≤ 100 nM |

====

Each entry below lists one item and its recorded EC50 value.
- Tested on: Histone H3 Ser10 sites in HT29 cells
- ASSAY PROCEDURE: Phosphorylation assay of histone H3 Ser10 sites in HT29 cells (immunofluorescence assay)
- Type: cell-based
- STATED CONDITIONS: Homo sapiens, HT-29, 6 h after addition, FITC/DAPI ratio

| COMPOUND | READOUT UNIT | EC50 |
| --- | --- | --- |
| O=C(Nc1ccc([N+](=O)[O-])c(N2CCC(F)(F)CC2)n1)c1ccc(NS(=O)(=O)CCO)cc1N1CCC2(CC1)CC2 | nM | 45.5 |
| COc1ccc(NC(=O)c2ccc(NS(=O)(=O)CCOC(=O)C(C)C)cc2N2CCC3(CC2)CC3)nc1N1CCC(F)(F)CC1 | nM | 28.3 |
| CNc1ccc(NC(=O)c2ccc(NS(=O)(=O)CCO)cc2N2CCC3(CC2)CC3)cc1N1CCC(F)(F)CC1 | nM | 21.7 |
| COc1ccc(C(=O)Nc2cnc(NS(=O)(=O)CCO)cc2N2CCC3(CC2)CC3)nc1N1CCC(F)(F)CC1 | nM | 42.2 |
| COc1ccc(C(=O)Nc2ccc(NS(=O)(=O)CCO)cc2N2CCC3(CC2)CC3)nc1N1CCC(F)(F)CC1 | nM | 15.8 |
| COc1ccc(NC(=O)c2ccc(NS(=O)(=O)CCOC(C)=O)cc2N2CCC3(CC2)CC3)nc1N1CCC(F)(F)CC1 | nM | 23.7 |
| Cc1cc(NC(=O)c2ccc(NS(=O)(=O)CCO)cc2N2CCC3(CC2)CC3)nc(N2CCC(F)(F)CC2)n1 [AMG650, reference compound] | nM | 52.3 |
| COc1ccc(NC(=O)c2ccc(NS(=O)(=O)CCO)cc2N2CCC3(CC2)CC3)nc1N1CCC(F)(F)CC1 | nM | 8.4 |
| COc1ccc(NC(=O)c2ccc(S(=O)(=O)NCCO)cc2N2CCC3(CC2)CC3)nc1N1CCC(F)(F)CC1 | nM | 8.5 |
